Biological target: human α1H T-type channels (Homo sapiens)
Construct: expressed in transfected cells; host or cells: HEK 293
Experiment: T-type calcium channel block, whole cell patch clamp (α1H)
Format: cell-based
Conditions: HEK cells stably expressing human α1H; mainly non-inactivated protocol; values above 10 μM represented as 10 μM
Procedure: T-type calcium channel blocking activity was assayed in human embryonic kidney cells, HEK 293, stably transfected with the T-type calcium channel subunits. […] Standard patch-clamp techniques were employed to identify blockers of T-type currents. […] Data were analyzed using Clampfit (Axon Instruments) and SigmaPlot 4.0 (Jandel Scientific). […]
pIC50: −log10 of the molar value.
quantity.measured: pIC50

Form field - read-out: pIC50; system: human α1H T-type channels (Homo sapiens); submitted item: O=C(CN[C@H]1CC[C@H](CNC(=O)c2cc(C(F)(F)F)cc(C(F)(F)F)c2)CC1)NN1CCCCC1 [Compound 60]
5.72

Form field - read-out: pIC50; system: human α1H T-type channels (Homo sapiens); submitted item: C#CC(CC)(CC)NC(=O)CN[C@H]1CC[C@H](CNC(=O)c2cc(C(F)(F)F)cc(C(F)(F)F)c2)CC1 [Compound 62]
6.51

Form field - read-out: pIC50; system: human α1H T-type channels (Homo sapiens); submitted item: CC(C)(C)NC(=O)CN[C@H]1CC[C@@H](CNC(=O)c2cccc(Cl)c2)CC1 [Compound 179]
5.88

A. O=C(NC[C@H]1CC[C@@H](NCc2ccccc2O)CC1)c1cc(C(F)(F)F)cc(C(F)(F)F)c1 [Compound 7]
B. COc1cc(F)cc(C(=O)NC[C@H]2CC[C@@H](NCC(=O)NC3(C)CCC3)CC2)c1 [Compound 197]
C. COc1cccnc1CN[C@H]1CC[C@@H](CNC(=O)c2cc(F)cc(C(F)(F)F)c2)CC1 [Compound 20]
# ascending order, key=pIC50 Please respond by ranking the labels in the order requested.
C, A, B
(C: 5.27, A: 5.81, B: 6.59)

====

Target: human α1H T-type channels (Homo sapiens, UniProt O95180)
Sequence (O95180 whole entry): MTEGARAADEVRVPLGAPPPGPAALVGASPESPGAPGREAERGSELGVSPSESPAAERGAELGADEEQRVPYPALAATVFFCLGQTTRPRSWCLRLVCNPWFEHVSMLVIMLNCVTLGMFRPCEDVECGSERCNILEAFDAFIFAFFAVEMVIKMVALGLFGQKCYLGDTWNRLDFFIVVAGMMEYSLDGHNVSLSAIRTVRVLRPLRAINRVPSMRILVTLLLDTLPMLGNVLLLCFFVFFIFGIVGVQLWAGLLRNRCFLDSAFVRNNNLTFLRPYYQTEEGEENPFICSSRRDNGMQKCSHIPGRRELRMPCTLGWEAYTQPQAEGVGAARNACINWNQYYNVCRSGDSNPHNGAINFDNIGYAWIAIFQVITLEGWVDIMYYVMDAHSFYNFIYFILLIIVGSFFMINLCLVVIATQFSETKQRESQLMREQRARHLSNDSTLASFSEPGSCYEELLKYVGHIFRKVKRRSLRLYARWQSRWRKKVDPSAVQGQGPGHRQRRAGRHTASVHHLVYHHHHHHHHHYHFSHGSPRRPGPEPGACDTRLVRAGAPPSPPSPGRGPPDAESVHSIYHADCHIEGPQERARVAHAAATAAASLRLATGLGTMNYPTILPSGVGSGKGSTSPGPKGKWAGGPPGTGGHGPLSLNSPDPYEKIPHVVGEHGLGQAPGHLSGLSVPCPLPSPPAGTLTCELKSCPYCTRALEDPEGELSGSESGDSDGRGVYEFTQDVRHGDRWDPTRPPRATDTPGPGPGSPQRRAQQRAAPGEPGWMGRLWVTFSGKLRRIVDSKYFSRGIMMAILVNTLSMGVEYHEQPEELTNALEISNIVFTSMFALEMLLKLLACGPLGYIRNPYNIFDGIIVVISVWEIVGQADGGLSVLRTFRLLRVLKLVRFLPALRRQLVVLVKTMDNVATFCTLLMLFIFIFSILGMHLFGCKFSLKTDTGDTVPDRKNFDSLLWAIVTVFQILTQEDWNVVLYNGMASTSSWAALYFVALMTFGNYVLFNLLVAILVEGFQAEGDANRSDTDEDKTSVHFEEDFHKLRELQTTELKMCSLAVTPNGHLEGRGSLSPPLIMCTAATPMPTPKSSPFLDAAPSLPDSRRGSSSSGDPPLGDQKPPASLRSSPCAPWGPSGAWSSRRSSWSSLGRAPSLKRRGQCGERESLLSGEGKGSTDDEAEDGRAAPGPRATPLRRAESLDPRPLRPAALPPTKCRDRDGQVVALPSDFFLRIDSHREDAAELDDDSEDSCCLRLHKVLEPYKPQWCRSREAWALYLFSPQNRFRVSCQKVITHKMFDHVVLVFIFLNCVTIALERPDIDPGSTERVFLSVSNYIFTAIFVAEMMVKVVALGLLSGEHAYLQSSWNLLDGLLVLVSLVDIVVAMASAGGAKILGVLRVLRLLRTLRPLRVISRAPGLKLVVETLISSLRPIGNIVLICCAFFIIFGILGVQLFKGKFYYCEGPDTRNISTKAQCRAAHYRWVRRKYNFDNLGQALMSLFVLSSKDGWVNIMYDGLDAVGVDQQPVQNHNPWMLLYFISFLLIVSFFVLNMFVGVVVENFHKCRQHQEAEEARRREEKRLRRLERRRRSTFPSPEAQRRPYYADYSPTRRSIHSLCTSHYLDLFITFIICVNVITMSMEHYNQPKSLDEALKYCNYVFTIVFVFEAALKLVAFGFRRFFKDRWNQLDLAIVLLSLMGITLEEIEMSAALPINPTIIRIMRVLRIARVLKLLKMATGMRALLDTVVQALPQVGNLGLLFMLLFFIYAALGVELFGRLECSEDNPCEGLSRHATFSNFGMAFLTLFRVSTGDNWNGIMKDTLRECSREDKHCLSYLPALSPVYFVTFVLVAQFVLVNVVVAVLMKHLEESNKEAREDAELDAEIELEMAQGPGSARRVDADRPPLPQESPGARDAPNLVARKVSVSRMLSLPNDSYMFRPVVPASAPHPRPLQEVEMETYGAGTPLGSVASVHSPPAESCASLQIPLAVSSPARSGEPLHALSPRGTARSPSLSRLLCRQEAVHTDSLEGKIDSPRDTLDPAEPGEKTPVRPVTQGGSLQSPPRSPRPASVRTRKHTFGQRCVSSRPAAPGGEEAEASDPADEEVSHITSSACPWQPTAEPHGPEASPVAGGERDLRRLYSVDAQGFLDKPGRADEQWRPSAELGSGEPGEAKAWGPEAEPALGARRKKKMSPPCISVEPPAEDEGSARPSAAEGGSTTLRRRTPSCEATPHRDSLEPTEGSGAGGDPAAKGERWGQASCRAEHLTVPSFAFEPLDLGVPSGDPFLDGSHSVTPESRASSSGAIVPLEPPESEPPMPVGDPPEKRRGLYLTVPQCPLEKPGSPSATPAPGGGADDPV
Test: T-type calcium channel block, whole cell patch clamp (α1H)
Conditions: HEK cells stably expressing human α1H; mainly non-inactivated protocol; values above 10 μM represented as 10 μM
pIC50: −log10 of the molar value.
quantity.measured: pIC50

Solved entries:
For the compound `O=C(NC[C@H]1CC[C@@H](NCc2cccnc2F)CC1)c1cc(C(F)(F)F)cc(C(F)(F)F)c1` , what pIC50 is on record?
5.32

For the compound `CCC(CC)NC(=O)CN[C@H]1CC[C@H](CNC(=O)c2cc(C(F)(F)F)cc(C(F)(F)F)c2)CC1` , what pIC50 is on record?
6.37

For the compound `CC(C)(C)NC(=O)CN[C@H]1CC[C@@H](CNC(=O)c2cc(Cl)cc(Cl)c2)CC1` , what pIC50 is on record?
7.22

For the compound COC1CCC(N(C)C(=O)CN[C@H]2CC[C@H](CNC(=O)c3cc(C(F)(F)F)cc(C(F)(F)F)c3)CC2)CC1 (stereo partly shown) , what pIC50 is on record?
5.13

For the compound `O=C(NC[C@H]1CC[C@@H](NCC(=O)N2CCCC2)CC1)c1cc(C(F)(F)F)cc(C(F)(F)F)c1` , what pIC50 is on record?
6.10

For the compound `CC1(C)COCCN1C(=O)CN[C@H]1CC[C@@H](CNC(=O)c2cc(F)cc(Cl)c2)CC1` , what pIC50 is on record?
6.40

For the compound `O=C(NC[C@H]1CC[C@H](NCC(=O)N2CCC(F)(F)C2)CC1)c1cc(C(F)(F)F)cc(C(F)(F)F)c1` , what pIC50 is on record?
5.76

For the compound `CC(C)(C)NC(=O)CN[C@H]1CC[C@@H](CNC(=O)c2cccc(OC(F)(F)F)c2)CC1` , what pIC50 is on record?
6.48

For the compound `CN(C(=O)CN[C@H]1CC[C@H](CNC(=O)c2cc(C(F)(F)F)cc(C(F)(F)F)c2)CC1)C1CCCC1` , what pIC50 is on record?
6.21

For the compound `CC1(C)CCCN1C(=O)CN[C@H]1CC[C@@H](CNC(=O)c2cc(F)cc(Cl)c2)CC1` , what pIC50 is on record?
6.77

I. CN(C(=O)CN[C@H]1CC[C@H](CNC(=O)c2cc(F)cc(Cl)c2)CC1)C(C)(C)C
II. CC(C)(C)C(O)CN[C@H]1CC[C@@H](CC(=O)Nc2cc(C(F)(F)F)cc(C(F)(F)F)c2)CC1 (stereo partly shown)
Compare I and II and name the one whose reported pIC50 is smaller. The response must carry the label of the picked entry.
I
(I: 5.96, II: 6.28)

1. Cc1cc(CNC[C@H]2CC[C@H](NC(=O)c3cc(C(F)(F)F)cc(C(F)(F)F)c3)CC2)no1
2. CC(C)(C)C(O)CN[C@H]1CC[C@H](CNC(=O)c2cc(C(F)(F)F)cc(C(F)(F)F)c2)CC1 (stereo partly shown)
Return label of the item with the larger pIC50. Candidates: 1 , 2 . The response must carry the label of the picked entry.
2

a. COc1cc(OC)cc(C(=O)NC[C@H]2CC[C@@H](NCC(=O)NC(C)(C)C)CC2)c1
b. O=C(NC[C@H]1CC[C@@H](NC(=O)[C@@H]2C[C@@H](c3ccccc3)CN2)CC1)c1cc(C(F)(F)F)cc(C(F)(F)F)c1
Return label of the item with the larger pIC50. Candidates: a , b . The response must carry the label of the picked entry.
a
(a: 6.48, b: 5.61)

I. O=C(CCC(F)(F)F)NCCN[C@H]1CC[C@H](CNC(=O)c2cc(C(F)(F)F)cc(C(F)(F)F)c2)CC1
II. CC(C)(C)NC(=O)CN[C@H]1CC[C@@H](CNC(=O)c2cccc(C(F)(F)F)c2)CC1
III. O=C(NC[C@H]1CC[C@H](NC(=O)[C@H]2CC[C@@H](c3ccccc3)N2)CC1)c1cc(C(F)(F)F)cc(C(F)(F)F)c1
IV. COc1cc(F)cc(C(=O)NC[C@H]2CC[C@H](NCC(=O)NC(C)(C)C)CC2)c1
Sort the 4 compounds by pIC50; largest first, smallest last. Please respond by ranking the labels in the order requested.
IV, I, II, III
(IV: 5.99, I: 5.74, II: 5.47, III: 5.11)
